Listed here are molecules together with their documented IC50.
target: human E-Selectin-IgG-chimera (Homo sapiens); test: Sialyl Lewis^x Tyrosine Sulfate Assay (sLe^x TSA), E-selectin; settings: inhibition of binding of selectin chimera to sLe^x-tyrosine sulfate polyacrylamide ligand complex
Sequence (P16581 with tags, fused parts or gaps limits assumed): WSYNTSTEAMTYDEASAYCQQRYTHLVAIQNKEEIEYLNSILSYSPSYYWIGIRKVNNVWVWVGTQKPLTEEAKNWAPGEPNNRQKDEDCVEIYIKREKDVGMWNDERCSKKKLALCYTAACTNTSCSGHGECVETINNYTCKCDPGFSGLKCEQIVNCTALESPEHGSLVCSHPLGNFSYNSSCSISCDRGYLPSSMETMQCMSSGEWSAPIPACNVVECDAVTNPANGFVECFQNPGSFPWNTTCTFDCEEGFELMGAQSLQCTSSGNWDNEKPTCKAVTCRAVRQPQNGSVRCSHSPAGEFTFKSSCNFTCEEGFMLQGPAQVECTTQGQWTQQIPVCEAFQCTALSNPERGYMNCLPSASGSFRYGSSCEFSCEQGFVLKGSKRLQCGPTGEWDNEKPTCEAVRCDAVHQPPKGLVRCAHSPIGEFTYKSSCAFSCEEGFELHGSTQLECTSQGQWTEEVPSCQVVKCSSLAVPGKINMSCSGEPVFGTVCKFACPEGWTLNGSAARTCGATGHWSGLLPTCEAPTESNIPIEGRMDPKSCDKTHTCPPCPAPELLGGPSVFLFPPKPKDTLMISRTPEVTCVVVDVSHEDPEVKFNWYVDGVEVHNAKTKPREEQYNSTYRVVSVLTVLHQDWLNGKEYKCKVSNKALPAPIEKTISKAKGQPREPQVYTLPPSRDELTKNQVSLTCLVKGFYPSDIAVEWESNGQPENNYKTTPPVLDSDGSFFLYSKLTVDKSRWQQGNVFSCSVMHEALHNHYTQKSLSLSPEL

Example entries and their recorded answers appear below.
molecule="COc1cc(CCC(=O)Nc2cccc(N)c2)cc(OC)c1OC [Compound 60]" assay_value="18.2 µM"
molecule="COc1ccc(-c2cccc(C(=O)Nc3ccccc3-c3ccc(CC(=O)O)s3)c2)c(OC)c1OC [Compound 61]" assay_value="> 500 µM"
molecule="CCOC(=O)c1cc(-c2ccc(NC(=O)Cc3ccc(OC)c(OC)c3OC)cc2)oc1C [Compound 62]" assay_value="74.7 µM"
molecule="COc1ccc(-c2cc(C(=O)Nc3ccccc3-c3ccc(CC(=O)O)s3)cc([N+](=O)[O-])c2)c(OC)c1OC [Compound 63]" assay_value="> 500 µM"

Shifting focus to the molecule that follows.
Lab book: IC50 of COc1ccc(-c2cccc(C(=O)Nc3ccccc3-c3ccc(C(=O)O)s3)c2)c(OC)c1OC [Compound 64] noted as > 500 µM

====

target: human L-Selectin-IgG-chimera (Homo sapiens); assay: Sialyl Lewis^x Tyrosine Sulfate Assay (sLe^x TSA), L-selectin; details: inhibition of binding of selectin chimera to sLe^x-tyrosine sulfate polyacrylamide ligand complex
Listed here are compounds together with their documented IC50.
Give just the numeric value; µM need not be written.

Example entries and their recorded answers appear below.
mol=COc1ccc(-c2cccc(C(=O)Nc3ccccc3-c3ccc(Cc4nnn[nH]4)s3)c2)c(OC)c1OC unit_of_measurement=µM assay_value=59.5
mol=COc1cc(CCC(=O)Nc2cccc(N)c2)cc(OC)c1OC unit_of_measurement=µM assay_value=12.8
mol=CCOC(=O)c1cc(-c2ccc(NC(=O)Cc3ccc(OC)c(OC)c3OC)cc2)oc1C unit_of_measurement=µM assay_value=45.3

Shifting focus to the compound that follows.
Lab book: IC50 of COc1ccc(-c2cccc(C(=O)Nc3ccccc3-c3ccc(C(=O)O)s3)c2)c(OC)c1OC noted as 383

====

molecular target: human L-Selectin-IgG-chimera (Homo sapiens, UniProt P14151); test: Sialyl Lewis^x Tyrosine Sulfate Assay (sLe^x TSA), L-selectin; conditions: inhibition of binding of selectin chimera to sLe^x-tyrosine sulfate polyacrylamide ligand complex
Sequence (P14151 with tags, fused parts or gaps limits assumed): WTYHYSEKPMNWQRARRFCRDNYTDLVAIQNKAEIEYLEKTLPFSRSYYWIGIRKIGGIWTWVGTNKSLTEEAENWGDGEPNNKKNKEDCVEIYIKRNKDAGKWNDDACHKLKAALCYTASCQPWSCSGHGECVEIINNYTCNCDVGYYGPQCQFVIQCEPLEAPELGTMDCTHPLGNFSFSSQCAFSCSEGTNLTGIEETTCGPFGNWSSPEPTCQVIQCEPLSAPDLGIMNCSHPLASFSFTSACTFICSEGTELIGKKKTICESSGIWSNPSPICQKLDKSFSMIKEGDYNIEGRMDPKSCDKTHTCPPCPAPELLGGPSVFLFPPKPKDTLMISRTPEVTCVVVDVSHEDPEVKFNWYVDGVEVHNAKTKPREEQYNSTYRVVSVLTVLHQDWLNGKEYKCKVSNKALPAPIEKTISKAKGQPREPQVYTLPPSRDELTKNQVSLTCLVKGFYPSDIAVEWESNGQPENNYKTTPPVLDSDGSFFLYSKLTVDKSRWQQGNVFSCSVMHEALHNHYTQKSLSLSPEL
value type: IC50

Example entries and their recorded answers appear below.
molecule="O=C(O)Cc1cccc(-c2cc(CCCCCCc3ccc(O[C@H]4O[C@H](CO)[C@@H](O)[C@H](O)[C@@H]4O)c(-c4cccc(CC(=O)O)c4)c3)ccc2O[C@H]2O[C@H](CO)[C@@H](O)[C@H](O)[C@@H]2O)c1 [Bimosiamose, bimosiamose, reference compound]" study_system="human L-Selectin-IgG-chimera (Homo sapiens, UniProt P14151)" value_type=IC50 assay_value="> 500 µM"
molecule=COc1ccc(-c2cccc(C(=O)Nc3ccccc3-c3ccc(CC(=O)O)s3)c2)c(OC)c1OC study_system="human L-Selectin-IgG-chimera (Homo sapiens, UniProt P14151)" value_type=IC50 assay_value="385 µM"

Shifting focus to the molecule that follows.
Response field IC50 (human L-Selectin-IgG-chimera (Homo sapiens, UniProt P14151)) for item COc1ccc(-c2cc(C(=O)Nc3ccccc3-c3ccc(CC(=O)O)s3)cc([N+](=O)[O-])c2)c(OC)c1OC : 76.1 µM

====

target: human P-Selectin-IgG-chimera (Homo sapiens); assay: Sialyl Lewis^x Tyrosine Sulfate Assay (sLe^x TSA), P-selectin; conditions: inhibition of binding of selectin chimera to sLe^x-tyrosine sulfate polyacrylamide ligand complex
Sequence (P16109 with tags, fused parts or gaps limits assumed): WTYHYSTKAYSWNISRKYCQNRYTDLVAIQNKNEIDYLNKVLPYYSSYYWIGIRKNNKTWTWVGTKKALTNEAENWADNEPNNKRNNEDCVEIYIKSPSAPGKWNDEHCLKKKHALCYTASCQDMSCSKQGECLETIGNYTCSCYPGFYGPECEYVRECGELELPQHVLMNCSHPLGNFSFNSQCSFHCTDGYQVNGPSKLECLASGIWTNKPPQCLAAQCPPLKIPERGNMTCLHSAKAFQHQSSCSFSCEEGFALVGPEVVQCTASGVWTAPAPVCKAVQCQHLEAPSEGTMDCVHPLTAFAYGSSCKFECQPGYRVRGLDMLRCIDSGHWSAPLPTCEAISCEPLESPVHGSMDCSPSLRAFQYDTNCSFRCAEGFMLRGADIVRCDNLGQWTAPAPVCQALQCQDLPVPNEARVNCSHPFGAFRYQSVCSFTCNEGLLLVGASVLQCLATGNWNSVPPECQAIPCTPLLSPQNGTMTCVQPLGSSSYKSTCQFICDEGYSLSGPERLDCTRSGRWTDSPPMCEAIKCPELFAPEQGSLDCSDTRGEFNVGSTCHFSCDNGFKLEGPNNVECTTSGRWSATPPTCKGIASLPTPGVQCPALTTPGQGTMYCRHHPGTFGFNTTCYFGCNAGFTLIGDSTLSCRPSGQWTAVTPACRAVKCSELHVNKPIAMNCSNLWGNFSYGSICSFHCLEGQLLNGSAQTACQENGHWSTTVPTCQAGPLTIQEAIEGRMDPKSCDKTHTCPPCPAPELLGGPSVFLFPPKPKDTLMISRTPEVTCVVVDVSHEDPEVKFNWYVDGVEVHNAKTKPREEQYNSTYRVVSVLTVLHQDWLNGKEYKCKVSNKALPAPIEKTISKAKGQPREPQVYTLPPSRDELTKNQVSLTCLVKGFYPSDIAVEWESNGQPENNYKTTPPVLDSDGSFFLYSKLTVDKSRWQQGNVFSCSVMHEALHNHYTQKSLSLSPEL
With a cut-off of 30 µM, any IC50 strictly below it is called Satisfied; any IC50 meeting it or above is called Not satisfied.

molecule="COc1cc(CCC(=O)Nc2cccc(N)c2)cc(OC)c1OC [Compound 60]" group=Satisfied
molecule="CCOC(=O)c1cc(-c2ccc(NC(=O)Cc3ccc(OC)c(OC)c3OC)cc2)oc1C [Compound 62]" group="Not satisfied"
molecule="COc1ccc(-c2cccc(C(=O)Nc3ccccc3-c3ccc(CC(=O)O)s3)c2)c(OC)c1OC [Compound 61]" group="Not satisfied"
molecule="COc1ccc(-c2cc(C(=O)Nc3ccccc3-c3ccc(CC(=O)O)s3)cc([N+](=O)[O-])c2)c(OC)c1OC [Compound 63]" group=Satisfied
molecule="COc1ccc(-c2cccc(C(=O)Nc3ccccc3-c3ccc(Cc4nnn[nH]4)s3)c2)c(OC)c1OC [Compound 87]" group="Not satisfied"

[ask] Strictly below 30 µM in IC50? COc1ccc(-c2cccc(C(=O)Nc3ccccc3-c3ccc(C(=O)O)s3)c2)c(OC)c1OC [Compound 64]
[reply] Not satisfied
